Tgt: T1, Boi2, P39969
T1 sequence (P39969 32-116, looked up): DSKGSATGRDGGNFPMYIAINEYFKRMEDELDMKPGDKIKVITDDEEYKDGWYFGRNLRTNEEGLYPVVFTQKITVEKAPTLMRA
Experiment: SPOT array
Assay Conditions: median of control spots 1161
Observed Property: SPOT intensity

# Binder, Endpoint Result
rows = [
    ("NNQRRKPLLLNIGDH", 1),
    ("YLTRPLPSTPNEDSR", 1),
    ("APERAVPILPPRNNV", 1),
]

This collection of values is drawn from paper PMC2756588.
